Tested on: HT-29
PROCEDURE_DETAILS: NCI tumour cell line growth inhibition, 48 h
The source made the active and inactive calls. Rule as the data show it: active = GI50 up to about 1.1 µM and inactive = higher.
Valid outcomes are listed here; reply with one: True (active), False (inactive)

CNC(=O)OCc1nc([S+](C)[O-])n(C)c1COC(=O)NC (stereo unspecified) : False
CCOC(=O)C1(Cc2ccc(C)cc2)Cc2ccc(C)cc2C1=O (stereo unspecified) : False
COc1ccc(/C=N/NC(=O)c2ccccc2Nc2ccccc2C(=O)N/N=C/c2ccc(OC)cc2)cc1 : False
O=C(O)CN1CCNCCN(CC(=O)O)CC1 : False

Attention now turns to another entry.
What was the test verdict on O=C(N/N=C(\c1nc2ccc(Cl)cc2nc1O)C(O)c1ccccc1Cl)c1ccncc1 (stereo unspecified) ?
False
